The origin of these recorded values is patent US12691070B2.

# EXPERIMENT_NOTES: LNP zeta potential (Zetasizer)
# Type: physicochemical
# EXPERIMENTAL_CONDITIONS: LNP with mRNA (SEQ ID NO: 2)
PARAMETER: Zeta (mV)
Numbers only, in mV.

These solved cases illustrate the format of a correct answer.
{"COMPOUND": "CCCCCCCCC(CCCCCCCC)OC(=O)CCCCCCCN(CCCCCCCCOC(=O)C(CCCCCC)CCCCCCCC)CCCOC(=O)NCCN1CCCCC1 (stereo not shown) [Lipid 351]", "Zeta (mV)": "−4.142"}
{"COMPOUND": "CCCCCCCCCC(=O)OCCCCCCCN(CCCCCCCCOC(=O)C(CCCCCC)CCCCCCCC)CCOC(=O)NCCN(C)C (stereo not shown) [Lipid 197]", "Zeta (mV)": 13.59}
{"COMPOUND": "CCCCC/C=C\\C/C=C\\CCCCCCCCN(CCCCCCCC(=O)OC(CCCCCCCC)CCCCCCCC)CCOC(=O)NCCCN(CC)CC [Lipid 131]", "Zeta (mV)": 15.29}

Below: the item to evaluate.
For this compound ( CCCCC/C=C\C/C=C\CCCCCCCCN(CCCCCC(=O)OCCCCCCCCCCC)CCOC(=O)NCc1ncc[nH]1 [Lipid 90] ), measured Zeta (mV) is 7.6

---

# Test system: BALB/C mice
# EXPERIMENT_NOTES: Local tolerance determination by footpad injection
# Format: in vivo
# EXPERIMENTAL_CONDITIONS: cirRNA (SEQ ID NO: 1) LNP, 0.175 mg*kg-1 subcutaneous into the footpad, 24 hours post minus prior
PARAMETER: Footpad Thickness (24 h−0 h, mm)
Write down the value, and be sure its unit follows.

{"MOLECULE": "CCCCC/C=C\\C/C=C\\CCCCCCCCN(CCCCCC(=O)OCCCCCCCCCCC)CCOC(=O)NCc1ncc[nH]1 [Lipid 90]", "Footpad Thickness (24 h−0 h, mm)": "0.20 mm"}
{"MOLECULE": "CCCCCCCCC(CCCCCC)C(=O)OCCCCCCCCN(CCCCCCCCOC(=O)C(CCCCCC)CCCCCCCC)CCOC(=O)NCCN(C)C (stereo not shown) [Lipid 6]", "Footpad Thickness (24 h−0 h, mm)": "0.44 mm"}
{"MOLECULE": "CCCCCCCCC(CCCCCCCC)OC(=O)CCCCCCCN(CCCCCCCCOC(=O)C(CCCCCC)CCCCCCCC)CCOC(=O)NCCN1CCCC1 (stereo not shown) [Lipid 148]", "Footpad Thickness (24 h−0 h, mm)": "0.23 mm"}

The molecule CCCCC/C=C\C/C=C\CCCCCCCCN(CCCCCCCC(=O)OC(CCCCCCCC)CCCCCCCC)CCOC(=O)NCCN1CCCC1 [Lipid 128] , tested on BALB/C mice, showed Footpad Thickness (24 h−0 h, mm) of 0.98 mm

---

Kindly state Encapsulation Efficiency % for each of the entries shown.
# EXPERIMENT_NOTES: RNA encapsulation efficacy by Quant-IT Ribogreen kit
# Format: physicochemical
# EXPERIMENTAL_CONDITIONS: LNP with cirRNA (SEQ ID NO: 1)
# Procedure: Ionizable lipid, DSPC, Cholesterol and DMG-PEG 2000 were mixed at a molar ratio of 50:10:38.5:1.5 in absolute ethanol. Circular RNA and linear mRNA payloads were suspended in 25 mM Acetate Buffer (pH 4.5). […] The LNP size and polydispersity index (PDI), determined by dynamic light scattering (DLS), and zeta potential were measured by a Zetasizer machine (Malvern). […]
Entry format: amount then unit.

Past entries and their recorded results:
{"COMPOUND": "CCCCC/C=C\\C/C=C\\CCCCCCCCN(CCCCCCCC/C=C\\CCCCCCCC)CCOC(=O)NCCCN(CC)CC", "PARAMETER": "Encapsulation Efficiency %", "RESULT": "95%"}
{"COMPOUND": "CCCCCCCCCCC(CCCCCCCC)COC(=O)CCCCCN(CCCCCC(=O)OCC(CCCCCCCC)CCCCCCCCCC)CCCOC(=O)NCCN1CCC1 (centres unmarked)", "PARAMETER": "Encapsulation Efficiency %", "RESULT": "92%"}
{"COMPOUND": "CCCCCCCCCCCOC(=O)CCCCCN(CCCCCCCC(=O)OC(CCCCCCCC)CCCCCCCC)CCOC(=O)NCCN1CCCC1", "PARAMETER": "Encapsulation Efficiency %", "RESULT": "75%"}
{"COMPOUND": "CCCCCCCCC(CCCCCCCC)OC(=O)CCCCCCCN(CCCCCCCCOC(=O)C(CCCCCC)CCCCCCCC)CCCOC(=O)NCCN(C)C (centres unmarked)", "PARAMETER": "Encapsulation Efficiency %", "RESULT": "97%"}
{"COMPOUND": "CCCCCCCC/C=C\\CCCCCCCCN(CCCCCCCCOC(=O)C(CCCCCC)CCCCCCCC)CCOC(=O)NCCN1CCCC1 (centres unmarked)", "PARAMETER": "Encapsulation Efficiency %", "RESULT": "96%"}

Batch lookup, Encapsulation Efficiency % per entry.
1. CCCCC/C=C\CCOC(=O)CCCCCN(CCCCCCCCOC(=O)C(CCCCCC)CCCCCCCC)CCOC(=O)NCCN1CCN(C)CC1 (centres unmarked)
2. CCCCC/C=C\C/C=C\CCCCCCCCN(CCCCCCCC/C=C\CCCCCCCC)CCOC(=O)NCc1ncc[nH]1
3. CCCCC/C=C\C/C=C\CCCCCCCCN(CCCCCCCC(=O)OC(CCCCCCCC)CCCCCCCC)CCCOC(=O)NCCCn1ccnc1
4. CCCCCCOC(=O)CCCCCCCCCCN(CCCCCCCCCCC(=O)OCCCCCC)CCOC(=O)NCCN1CCN(C)CC1
5. CCCCC/C=C\C/C=C\CCCCCCCCN(CCCCCCCC(=O)OC(CCCCCCCC)CCCCCCCC)CCCOC(=O)NCc1ncc[nH]1
6. CCCCC/C=C\C/C=C\CCCCCCCCN(CCCCCCCC(=O)OC(CCCCCCCC)CCCCCCCC)CCCOC(=O)NCCN1CCCC1

**A:**
["92%", "92%", "96%", "96%", "93%", "92%"]

Give Encapsulation Efficiency % for all compounds that follow.
1. CCCCCCCCCCC(CCCCCCCC)COC(=O)CCCCCN(CCCCCC(=O)OCC(CCCCCCCC)CCCCCCCCCC)CCOC(=O)NCCN1CCOCC1 (centres unmarked)
2. CCCCC/C=C\CCOC(=O)CCCCCN(CCCCCCCCOC(=O)C(CCCCCC)CCCCCCCC)CCOC(=O)NCCN1CCCC1 (centres unmarked)
3. CCCCCCCC/C=C\CCCCCCCCN(CCCCCCCCOC(=O)C(CCCCCC)CCCCCCCC)CCOC(=O)NCCCN(CC)CC (centres unmarked)

**A:**
89%
91%
94%
